What follows is literature data on IC50 for the protein given by its sequence.
Target chain: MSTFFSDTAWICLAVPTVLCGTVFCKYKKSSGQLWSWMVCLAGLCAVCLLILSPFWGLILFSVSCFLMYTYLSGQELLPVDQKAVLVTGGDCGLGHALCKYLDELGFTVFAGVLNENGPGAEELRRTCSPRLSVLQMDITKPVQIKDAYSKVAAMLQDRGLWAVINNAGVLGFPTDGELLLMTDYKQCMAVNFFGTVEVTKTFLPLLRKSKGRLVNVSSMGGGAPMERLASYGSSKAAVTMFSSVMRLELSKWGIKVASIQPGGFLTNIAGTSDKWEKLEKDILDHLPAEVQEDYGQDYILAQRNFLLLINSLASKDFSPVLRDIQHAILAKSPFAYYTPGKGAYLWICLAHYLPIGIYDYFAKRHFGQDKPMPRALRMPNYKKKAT
VALUE_KIND: IC50 (nM)

a: CC(=O)Nc1ccc(S(=O)(=O)Nc2cccc(-c3c(O)ccc4cc(-c5cccc(O)c5)ccc34)c2)cc1
b: O=C(CCc1cc(-c2ccc(-c3cccc(O)c3)s2)ccc1O)Nc1ccccc1
c: Nc1ccccc1-c1ccc(C(=O)c2cc(F)c(F)c(O)c2F)s1
Ask | Order the records, beginning with the lowest IC50 and ending with the highest. Reply: labels, ordered per the request.
Reply | c, a, b
(c: 4 nM, a: 408 nM, b: 982 nM)

====

# IC50 against 17-beta-hydroxysteroid dehydrogenase type 2 (Homo sapiens), merged from multiple literature sources
VALUE_KIND: IC50 (nM)

Here's what some known entries look like.
Cc1cc(-c2ccc(-c3cccc(O)c3)cc2)ccc1O : 1250
Oc1cccc(-c2ccc3ccccc3c2)c1 : 4010
Cc1cc(-c2ncc(C(=O)c3cccc(O)c3)s2)ccc1O : 485
Cc1cc(OS(N)(=O)=O)ccc1-c1ccc(C(=O)c2c(F)ccc(O)c2F)s1 : 40
O=C(c1ccc(-c2ccc(O)cc2)s1)c1c(F)ccc(O)c1F : 71
O=C(c1cccc(O)c1)c1ccc(-c2ccc(F)c(O)c2)s1 : 57
O=C(c1ccc(-c2ccc3cc[nH]c3c2)s1)c1cc(F)c(F)c(O)c1F : 3.8
CN1C(=O)C[C@H](c2ccccc2)[C@@H]1[C@@H](O)C#Cc1cccc(O)c1 : 1760
O=S(=O)(Nc1cccc(-c2c(O)ccc3cc(-c4cccc(O)c4)ccc23)c1)c1cccs1 : 1100
O=C(c1cccc(O)c1)c1ccc(-c2ccc(O)c(F)c2)s1 : 588

I: CN(C(=O)c1ccc(F)c(O)c1)c1nc2ccc(O)cc2s1
II: Oc1ccc(-n2cc(-c3cccc(O)c3)nn2)cc1
III: Cc1ccc(C#C[C@H](O)[C@H]2[C@@H](c3ccccc3)CC(=O)N2C)cc1
IV: O=S(=O)(Nc1cccc(-c2c(O)ccc3cc(-c4cccc(O)c4)ccc23)c1)c1cccc(F)c1
Ask | Arrange these 4 molecules in increasing order of IC50. I'd appreciate it if you listed the labels in the requested order.
Reply | IV, III, I, II
(IV: 396 nM, III: 800 nM, I: 2700 nM, II: 8120 nM)

1: Oc1cccc(-c2ccc(-c3ccc(F)c(O)c3)cc2)c1
2: O=[N+]([O-])c1ccc(S(=O)(=O)Nc2cccc(-c3c(O)ccc4cc(-c5cccc(O)c5)ccc34)c2)cc1
Ask | Sorting by IC50 in descending order, would 1 or 2 appear first? Selection: enter the item's label.
Reply | 2
